Target: T1, rGyr_hel (reverse gyrase helicase-like domain) (Thermotoga maritima, UniProt O51934 59-541)
T1 sequence: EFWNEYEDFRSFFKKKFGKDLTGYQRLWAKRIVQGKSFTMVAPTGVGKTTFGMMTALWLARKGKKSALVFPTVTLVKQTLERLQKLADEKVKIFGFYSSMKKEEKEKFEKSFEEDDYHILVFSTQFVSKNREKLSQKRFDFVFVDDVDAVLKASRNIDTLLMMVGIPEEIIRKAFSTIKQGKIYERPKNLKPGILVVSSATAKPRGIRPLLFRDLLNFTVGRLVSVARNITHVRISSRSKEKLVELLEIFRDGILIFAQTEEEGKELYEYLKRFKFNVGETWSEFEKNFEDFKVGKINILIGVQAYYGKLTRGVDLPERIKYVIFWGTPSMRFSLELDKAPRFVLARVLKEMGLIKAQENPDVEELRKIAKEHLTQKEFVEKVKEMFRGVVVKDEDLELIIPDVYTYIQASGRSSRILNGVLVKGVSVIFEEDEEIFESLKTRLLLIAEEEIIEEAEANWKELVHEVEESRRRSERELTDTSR
Assay: fluorescence anisotropy
Endpoint: Kd

stdin: Recorded Kd for 60-base ssDNA (ssDNA) DNA: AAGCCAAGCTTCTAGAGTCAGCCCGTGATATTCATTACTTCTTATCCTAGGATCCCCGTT , please?
stdout: 460 nM
